assay: Determination of mammalian cytotoxicity (MTS); type: cell-based; details: human
Measured parameter: log10 CC50 at 3 days (log10 of the value in µM)
Recall that a logarithmic scale is used here: each number is log10 of CC50 at 3 days in µM.

Example cases with answers are listed next.
{"Compound": "CC(Oc1ccc(Cl)cc1Cl)C(=O)NC1CCCc2cc(F)ccc21 (centres unmarked)", "log10 CC50 at 3 days": 1.60}
{"Compound": "CC(Oc1ccc(Cl)cc1Cl)C(=O)NCc1ccc2[nH]ccc2c1 (centres unmarked)", "log10 CC50 at 3 days": 1.40}

Memo: Cc1c(-c2ccccc2)[nH]c2ccc(CNC(=O)C(C)Oc3ccc(Cl)cc3Cl)cc12 (centres unmarked) , reported log10 CC50 at 3 days: 1.38

The value of log10 CC50 at 3 days measured for the compound CC(Oc1ccc(Cl)cc1Cl)C(=O)NCCc1c[nH]c2cc(F)ccc12 (centres unmarked) turned out to be 0.85

The recorded log10 CC50 at 3 days for CC(Nc1ccc(Cl)cc1Cl)C(=O)NCc1ccc2c(c1)OCO2 (centres unmarked) is 1.90
